Reported values of MIC for individual entries
- Test system: ESCHERICHIA COLI H560
- Assay procedure: In vitro antibacterial activity, MIC, BHI agar dilution
- Format: cell-based
- Run conditions: E. coli H560, unit assumed

{"Compound": "CC[C@H]1OC(=O)[C@H](C)C(=O)[C@H](C)[C@@H](O[C@@H]2O[C@H](C)C[C@H](N(C)C)[C@H]2O)[C@](C)(OC)C[C@@H](C)C2=N[C@@H]3CCC[C@@H]3N3C(=O)O[C@@]1(C)[C@H]3[C@H]2C", "Meas value": "100 µg/mL"}

Kindly review the next compound as well.
Enquiry: Can you look up the measured MIC of "CC[C@H]1OC(=O)[C@H](C)C(=O)[C@H](C)[C@@H](O[C@@H]2O[C@H](C)C[C@H](N(C)C)[C@H]2O)[C@](C)(OC)C[C@@H](C)C2=N[C@H](COCCN3CCOCC3)CN3C(=O)O[C@@]1(C)[C@H]3[C@H]2C" for me?
Return: > 100 µg/mL

====

- System: STREPTOCOCCUS PYOGENES EES61
- Assay procedure: In vitro antibacterial activity, MIC, BHI agar dilution
- Assay type: cell-based
- Run conditions: S. pyogenes EES61, unit assumed
Reported values of MIC for individual entries

Examples from the recorded data:
{"Compound": "CCC1OC(=O)C(C)C(=O)C(C)C(OC2OC(C)CC(N(C)C)C2O)C(C)(OC)CC(C)C2=NC(c3ccccc3)C(c3ccccc3)N3C(=O)OC1(C)C3C2C (centres unmarked)", "MIC": "0.2 µg/mL"}
{"Compound": "CC[C@H]1OC(=O)[C@H](C)C(=O)[C@H](C)[C@@H](O[C@@H]2O[C@H](C)C[C@H](N(C)C)[C@H]2O)[C@](C)(OC)C[C@@H](C)C2=N[C@@H]3CN(Cc4ccncc4)C[C@@H]3N3C(=O)O[C@@]1(C)[C@H]3[C@H]2C", "MIC": "0.05 µg/mL"}
{"Compound": "CCC1OC(=O)C(C)C(=O)C(C)C(OC2OC(C)CC(N(C)C)C2O)C(C)(OC)CC(C)C2=NC(CN)CN3C(=O)OC1(C)C3C2C (centres unmarked)", "MIC": "0.01 µg/mL"}
{"Compound": "CC[C@H]1OC(=O)[C@H](C)C(=O)[C@H](C)[C@@H](O[C@@H]2O[C@H](C)C[C@H](N(C)C)[C@H]2O)[C@](C)(OC)C[C@@H](C)C2=N[C@H](COCc3ccccc3Cl)CN3C(=O)O[C@@]1(C)[C@H]3[C@H]2C", "MIC": "≤ 0.005 µg/mL"}

Kindly review the next compound as well.
Enquiry: Value wanted: MIC (STREPTOCOCCUS PYOGENES EES61) of entry CCC1OC(=O)C(C)C(=O)C(C)C(OC2OC(C)CC(N(C)C)C2O)C(C)(OC)CC(C)C2=NC(CN(C)C)CN3C(=O)OC1(C)C3C2C (centres unmarked)
Return: 0.02 µg/mL

====

- System: ESCHERICHIA COLI H560
- Assay procedure: In vitro antibacterial activity, MIC, BHI agar dilution
- Assay type: cell-based
- Run conditions: E. coli H560, unit assumed
Observation type: MIC (µg/mL)
Respond with the bare value in µg/mL.

Examples from the recorded data:
{"Compound": "CC[C@H]1OC(=O)[C@H](C)C(=O)[C@H](C)[C@@H](O[C@@H]2O[C@H](C)C[C@H](N(C)C)[C@H]2O)[C@](C)(OC)C[C@@H](C)C2=N[C@@H]3CNC[C@@H]3N3C(=O)O[C@@]1(C)[C@H]3[C@H]2C", "MIC (µg/mL)": 3.1}
{"Compound": "CC[C@H]1OC(=O)[C@H](C)C(=O)[C@H](C)[C@@H](O[C@@H]2O[C@H](C)C[C@H](N(C)C)[C@H]2O)[C@](C)(OC)C[C@@H](C)C2=N[C@H](COCc3ccccc3F)CN3C(=O)O[C@@]1(C)[C@H]3[C@H]2C", "MIC (µg/mL)": 50}
{"Compound": "CC[C@H]1OC(=O)[C@H](C)C(=O)[C@H](C)[C@@H](O[C@@H]2O[C@H](C)C[C@H](N(C)C)[C@H]2O)[C@](C)(OC)C[C@@H](C)C2=NC3CN(C=O)CC3N3C(=O)O[C@@]1(C)[C@H]3[C@H]2C (stereo partly drawn)", "MIC (µg/mL)": 50}
{"Compound": "CC[C@H]1OC(=O)[C@H](C)C(=O)[C@H](C)[C@@H](O[C@@H]2O[C@H](C)C[C@H](N(C)C)[C@H]2O)[C@](C)(OC)C[C@@H](C)C2=N[C@@H]3CCCC[C@@H]3N3C(=O)O[C@@]1(C)[C@H]3[C@H]2C", "MIC (µg/mL)": 50}
{"Compound": "CC[C@H]1OC(=O)[C@H](C)[C@@H](O[C@H]2C[C@@](C)(OC)[C@@H](O)[C@H](C)O2)[C@H](C)[C@@H](O[C@@H]2O[C@H](C)C[C@H](N(C)C)[C@H]2O)[C@@H](C)C[C@@H](C)C2=NCCN3C(=O)O[C@@]1(C)[C@H]3[C@H]2C", "MIC (µg/mL)": 50}

Kindly review the next compound as well.
Enquiry: Can you look up the measured MIC of "CC[C@H]1OC(=O)[C@H](C)C(=O)[C@H](C)[C@@H](O[C@@H]2O[C@H](C)C[C@H](N(C)C)[C@H]2O)[C@](C)(OC)C[C@@H](C)C2=N[C@H](C)[C@H](C)N3C(=O)O[C@@]1(C)[C@H]3[C@H]2C" for me?
Return: 25
